experiment: Potency code of Table 2 (assay not stated)
recorded-metric: Potency code

In the examples that follow, each entry is paired with its recorded Potency code.
* Oc1c(-c2cc(C(F)(F)F)n[nH]2)ccc(OCc2ccc(F)cc2)c1-c1cc(C(F)(F)F)cc(C(F)(F)F)c1 [NUCC-0201033] | + (>40 +)
* Cn1nc(-c2ccc(OCCN3CCOCC3)cc2O)c(Oc2ccccc2Cl)c1C(F)(F)F [NUCC-0196341] | + (>40 +)
* CCCCCCOc1ccc(-c2cc(C(F)(F)F)n[nH]2)c(O)c1-c1cncc(C#N)c1 [NUCC-0201194] | + (>40 +)
* Oc1c(-c2cc(C(F)(F)F)n[nH]2)ccc(OCc2ccc(Cl)cc2)c1-c1cncc(F)c1 [NUCC-0201040] | +++ (10-30 +++)
* Cn1nc(C(F)(F)F)cc1-c1ccc(OCc2ccc(Cl)cc2)cc1F [NUCC-0200977] | + (>40 +)

The compound listed as Cn1cc(-c2cn(C)nc2-c2ccc(OCc3ccc(Cl)cc3)cc2O)cn1 [NUCC-0198362] shows Potency code equal to + (>40 +)

The compound listed as Cn1nc(C(F)(F)F)cc1-c1ccc(OCc2ccc([N+](=O)[O-])cc2)c(-c2cncc(C(F)(F)F)c2)c1O [NUCC-0201653] shows Potency code equal to +++ (10-30 +++)

The compound listed as Cn1cc(-c2ccc(NCc3ccc(Cl)cc3)cn2)c(C(F)(F)F)n1 [NUCC-0200742] shows Potency code equal to + (>40 +)
